Experimental setup: 293.15 K; 101 kPa
± gives the uncertainty stated by the source.
Entries annotated with measured viscosity

Check out these entries, answers already filled in.
INSERT INTO measurements (structure_as_smiles, reported_property, result) VALUES
  ('CCCC[n+]1ccn(C)c1.O=[N+]([O-])[O-]', 'viscosity', '212.1 mPa·s'),
  ('C/C=C/C(=O)OCC', 'viscosity', '0.8184 ± 0.0091 mPa·s'),
  ('[Cl-].[Cl-].[Cl-].[Cl-].[Ti+4]', 'viscosity', '0.827 ± 0.014 mPa·s');

Here is the next item to consider.
Data request, read-out viscosity, for C=CC(=O)OC(C)(C)C
0.9072 ± 0.037 mPa·s

Just for reference, the CheMixHub viscosity set is where these values come from.
